- Tested on: MIA PaCa-2
- Assay Method Text: Antiproliferative activity against human MIAPaCa2 cells after 72 hrs by MTT assay
- Assay type: functional, cell-based
- Protocol Conditions: MIA PaCa-2, 72 h
Please assign a class to every record based on measured IC50, with ranges range 1 (below 3 µM), range 2 (3 µM to below 10 µM), range 3 (10 µM or more)

# count of solved cases: 8
Cc1ccc(Nc2nc3ccc(C4=NCCN4)cc3s2)nc1.Cl.Cl
range 1
N#Cc1ccc2nc(Nc3ccc(Cl)cn3)sc2c1
range 2
CC(C)NC(=N)c1ccc(C(=O)Nc2nc3ccccc3s2)cc1
range 3
Cc1ccc(Nc2nc3ccc(C(=N)NC(C)C)cc3s2)nc1.Cl.Cl
range 3
Cc1ccnc(Nc2nc3ccc(C#N)cc3s2)c1
range 2
CC(C)NC(=N)c1ccc(Nc2nc3ccc(C(=N)NC(C)C)cc3s2)cc1
range 3
CC(C)NC(=N)c1ccc2nc(NC(=O)c3ccc(F)cc3)sc2c1
range 3
CC(C)NC(=N)c1ccc2nc(Nc3ncccn3)sc2c1
range 3

Q: // return the class label for `Cc1cccc(Nc2nc3ccc(C4=NCCN4)cc3s2)n1.Cl.Cl`
A: range 1

Q: Same thing, different molecule: `N#Cc1ccc(Nc2nc3ccc(C#N)cc3s2)cc1`
A: range 3

Q: Can you handle `CC(C)NC(=N)c1ccc2nc(NC(=O)c3ccccc3)sc2c1` next?
A: range 3

Q: Thanks! And `Cc1cccc(Nc2nc3ccc(C#N)cc3s2)n1` ?
A: range 2

Q: Let us now turn to `Cc1ccc(Nc2nc3ccc(C#N)cc3s2)nc1`
A: range 2

Q: Please give the result for `c1cnc(Nc2nc3ccc(C4=NCCN4)cc3s2)nc1` too.
A: range 1

Q: Quick one: `Clc1ccc(Nc2nc3ccc(C4=NCCN4)cc3s2)nc1`
A: range 1

Q: Then this molecule: `CC(C)NC(=N)c1ccc2nc(Nc3ccc(Cl)cn3)sc2c1`
A: range 3

Q: Do the same for `CC(C)NC(=N)c1ccc2nc(NC(=O)c3ccccc3Cl)sc2c1` please
A: range 3
